- Test system: 624824-186-R-J3-PDC multicell spheroids, viability
- test-name: Anticancer human tumor 624824-186-R-J3-PDC patient-derived colon adenocarcinoma cell line growth inhibition [PI3K]
- details: second compound 0.01 µM; first compound 0.316 µM; stronger effect = lower value
Assign viability, T/C to each entry below.
Answers are plain numbers, in %.

Study these solved cases before continuing.
1. CC(Cn1ccc(-c2ccc(C#N)c(Cl)c2)n1)NC(=O)c1cc(C(C)O)[nH]n1 (stereo unspecified) + COc1c(OCCCN2CCOCC2)ccc2c3n(c(=NC(=O)c4cnc(N)nc4)nc12)CCN3
98.2
2. CC1(C)CCC(CN2CCN(c3ccc(C(=O)NS(=O)(=O)c4ccc(NCC5CCOCC5)c([N+](=O)[O-])c4)c(Oc4cnc5[nH]ccc5c4)c3)CC2)=C(c2ccc(Cl)cc2)C1 + COc1c(OCCCN2CCOCC2)ccc2c3n(c(=NC(=O)c4cnc(N)nc4)nc12)CCN3
105
3. Cn1ncc(Cl)c1-c1cc(C(=O)NC(CN)Cc2cccc(F)c2)sc1Cl (stereo unspecified) + CC(Nc1ccc2c(c1)OCCn1cc(N3C(=O)OCC3C(F)F)nc1-2)C(N)=O
92.9
4. Cn1nccc1Nc1nccc(-c2ccn(C(CO)c3ccc(Cl)c(F)c3)c(=O)c2)n1 (stereo unspecified) + COc1c(OCCCN2CCOCC2)ccc2c3n(c(=NC(=O)c4cnc(N)nc4)nc12)CCN3
87.5
5. CNC(=O)c1ccc(N2C(=S)N(c3ccc(C#N)c(C(F)(F)F)c3)C(=O)C2(C)C)cc1F + COc1c(OCCCN2CCOCC2)ccc2c3n(c(=NC(=O)c4cnc(N)nc4)nc12)CCN3
101
6. Cn1ncc(Cl)c1-c1cc(C(=O)NC(CN)Cc2cccc(F)c2)sc1Cl (stereo unspecified) + COc1c(OCCCN2CCOCC2)ccc2c3n(c(=NC(=O)c4cnc(N)nc4)nc12)CCN3
95
7. C[C@@H](NC(=O)c1ncnc(N)c1Cl)c1ncc(C(=O)Nc2cc(C(F)(F)F)c(Cl)cn2)s1 + COc1c(OCCCN2CCOCC2)ccc2c3n(c(=NC(=O)c4cnc(N)nc4)nc12)CCN3
95.6
8. C=CC(=O)N1CCN(c2nc(=O)n(-c3c(C)ccnc3C(C)C)c3nc(-c4c(O)cccc4F)c(F)cc23)C(C)C1 (stereo unspecified) + COc1c(OCCCN2CCOCC2)ccc2c3n(c(=NC(=O)c4cnc(N)nc4)nc12)CCN3
104

For each of the compounds below, state viability, T/C.
1. CNC(=O)c1ccc(N2C(=S)N(c3ccc(C#N)c(C(F)(F)F)c3)C(=O)C2(C)C)cc1F + CC(Nc1ccc2c(c1)OCCn1cc(N3C(=O)OCC3C(F)F)nc1-2)C(N)=O
2. C=CC(=O)N1CCN(c2nc(=O)n(-c3c(C)ccnc3C(C)C)c3nc(-c4c(O)cccc4F)c(F)cc23)C(C)C1 (stereo unspecified) + CC(Nc1ccc2c(c1)OCCn1cc(N3C(=O)OCC3C(F)F)nc1-2)C(N)=O
3. CCN1CCN(Cc2ccc(Nc3ncc(F)c(-c4cc(F)c5nc(C)n(C(C)C)c5c4)n3)nc2)CC1 + CC(Nc1ccc2c(c1)OCCn1cc(N3C(=O)OCC3C(F)F)nc1-2)C(N)=O

result:
1: 108; 2: 96.9; 3: 104

----------
I'd be grateful if you could share measured pIC50 for these entries.
- System: 624824-186-R-J3-PDC multicell spheroids, viability
- test-name: Anticancer human tumor 624824-186-R-J3-PDC cell line growth inhibition [PI3K];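 further: spheroids exposed to agents for seven days before luminescence read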
- details: curve of first compound; second compound 1 µM
pIC50: −log10 of the molar value.

1) CC1(C)CCC(Nc2ncc(C(F)(F)F)c(-c3c[nH]c4c(P(C)(C)=O)c(C#N)ccc34)n2)CN1 (stereo unspecified) + COc1c(OCCCN2CCOCC2)ccc2c3n(c(=NC(=O)c4cnc(N)nc4)nc12)CCN3
> 7.50

Could you tell me pIC50 for each of these compounds? They are listed below.
1. Cn1cnc2c(F)c(Nc3ccc(Br)cc3Cl)c(C(=O)NOCCO)cc21 + COc1c(OCCCN2CCOCC2)ccc2c3n(c(=NC(=O)c4cnc(N)nc4)nc12)CCN3
2. Cn1nccc1Nc1nccc(-c2ccn(C(CO)c3ccc(Cl)c(F)c3)c(=O)c2)n1 (stereo unspecified) + COc1c(OCCCN2CCOCC2)ccc2c3n(c(=NC(=O)c4cnc(N)nc4)nc12)CCN3
3. C[C@@H](NC(=O)c1ncnc(N)c1Cl)c1ncc(C(=O)Nc2cc(C(F)(F)F)c(Cl)cn2)s1 + CC(Nc1ncnc2nc[nH]c12)c1cc2cccc(Cl)c2c(=O)n1-c1ccccc1
4. CC(C)NCC(C(=O)N1CCN(c2ncnc3c2C(C)CC3O)CC1)c1ccc(Cl)cc1 (stereo unspecified) + Cc1nc(NC(=O)N2CCCC2C(N)=O)sc1-c1ccnc(C(C)(C)C(F)(F)F)c1
5. Cn1nccc1Nc1nccc(-c2ccn(C(CO)c3ccc(Cl)c(F)c3)c(=O)c2)n1 (stereo unspecified) + Cc1nc(NC(=O)N2CCCC2C(N)=O)sc1-c1ccnc(C(C)(C)C(F)(F)F)c1
6. Cn1ncnc1[C@H]1c2n[nH]c(=O)c3cc(F)cc(c23)N[C@@H]1c1ccc(F)cc1 + COc1c(OCCCN2CCOCC2)ccc2c3n(c(=NC(=O)c4cnc(N)nc4)nc12)CCN3
7. C#Cc1c(F)ccc2cc(O)cc(-c3ncc4c(N5CC6CCC(C5)N6)nc(OCC56CCCN5CC(F)C6)nc4c3F)c12 (stereo unspecified) + CC(Nc1ncnc2nc[nH]c12)c1cc2cccc(Cl)c2c(=O)n1-c1ccccc1
8. CCN1CCN(Cc2ccc(Nc3ncc(F)c(-c4cc(F)c5nc(C)n(C(C)C)c5c4)n3)nc2)CC1 + CC(Nc1ccc2c(c1)OCCn1cc(N3C(=O)OCC3C(F)F)nc1-2)C(N)=O

result:
> 8.02
> 7.50
< 5.00
5.55
6.11
> 9.50
< 5.00
6.54

Record pIC50 per entry; entries follow.
1. C=CC(=O)N1CCN(c2nc(=O)n(-c3c(C)ccnc3C(C)C)c3nc(-c4c(O)cccc4F)c(F)cc23)C(C)C1 (stereo unspecified) + CC(Nc1ccc2c(c1)OCCn1cc(N3C(=O)OCC3C(F)F)nc1-2)C(N)=O
2. CCN1CCN(Cc2ccc(Nc3ncc(F)c(-c4cc(F)c5nc(C)n(C(C)C)c5c4)n3)nc2)CC1 + COc1c(OCCCN2CCOCC2)ccc2c3n(c(=NC(=O)c4cnc(N)nc4)nc12)CCN3

result:
1. < 5.00
2. > 8.50
